# measured-target: thrombin receptor (Homo sapiens, UniProt P25116)
# Construct: washed human platelets are prepared from blood drawn from healthy volunteers; endogenous in cells; host or cells: washed human platelets from healthy volunteers
# Sequence (P25116 22-425): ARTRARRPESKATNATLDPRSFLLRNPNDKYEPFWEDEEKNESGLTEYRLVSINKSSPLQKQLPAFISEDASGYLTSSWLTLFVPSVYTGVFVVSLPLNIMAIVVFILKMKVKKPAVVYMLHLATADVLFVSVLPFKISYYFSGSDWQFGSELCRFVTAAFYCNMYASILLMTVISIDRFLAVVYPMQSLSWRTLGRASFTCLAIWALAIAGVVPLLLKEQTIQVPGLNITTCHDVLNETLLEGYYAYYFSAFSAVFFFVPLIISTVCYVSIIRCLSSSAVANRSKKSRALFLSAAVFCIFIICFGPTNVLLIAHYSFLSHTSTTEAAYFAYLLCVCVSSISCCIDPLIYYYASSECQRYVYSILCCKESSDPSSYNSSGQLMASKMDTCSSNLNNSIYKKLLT
# assay-overview: Platelet aggregation assay for thrombin receptor antagonist activity (washed human platelets stimulated with α-thrombin)
# Assay type: cell-based
Where a SMILES comes first, the peptide text is derived from it. [ ]: non-standard residue; d: D form. The star is where a group is joined. X18 = CN(CC(c1ccccc1)c1ccccc1)[C@@H](Cc1ccccc1)C(=O)*; X5 = CCCCCN(C)[C@@H](Cc1ccccc1)C(=O)*; Cha = N[C@@H](CC1CCCCC1)C(=O)O; dCha = N[C@H](CC1CCCCC1)C(=O)O
metric: pIC50
Recall that pIC50 is obtained by taking minus log10 of the concentration measured in molar.

compound: CN(CC(c1ccccc1)c1ccccc1)[C@@H](Cc1ccccc1)C(=O)N[C@@H](CC1CCCCC1)C(=O)N[C@@H](CC1CCCCC1)C(=O)N[C@@H](CCCNC(=N)N)C(=O)N[C@@H](CCCCN)C(N)=O [Compound 16] (X18-[Cha][Cha]RK-NH2)
metric: pIC50
recorded-number: 5.00

Qu. Reported pIC50 for thrombin receptor (Homo sapiens, UniProt P25116), given CCCCCN(C)[C@@H](Cc1ccccc1)C(=O)N[C@@H](CC1CCCCC1)C(=O)N[C@H](CC1CCCCC1)C(=O)N[C@@H](CCCNC(=N)N)C(=O)N[C@@H](CCCCN)C(N)=O [Compound 43] (X5-[Cha][dCha]RK-NH2) ?
Ans. 4.82

----------
Listing of entries alongside the reported pIC50.
# measured-target: thrombin receptor (Homo sapiens, UniProt P25116)
# Construct: washed human platelets are prepared from blood drawn from healthy volunteers; endogenous in cells; host or cells: washed human platelets from healthy volunteers
# Sequence (P25116 22-425): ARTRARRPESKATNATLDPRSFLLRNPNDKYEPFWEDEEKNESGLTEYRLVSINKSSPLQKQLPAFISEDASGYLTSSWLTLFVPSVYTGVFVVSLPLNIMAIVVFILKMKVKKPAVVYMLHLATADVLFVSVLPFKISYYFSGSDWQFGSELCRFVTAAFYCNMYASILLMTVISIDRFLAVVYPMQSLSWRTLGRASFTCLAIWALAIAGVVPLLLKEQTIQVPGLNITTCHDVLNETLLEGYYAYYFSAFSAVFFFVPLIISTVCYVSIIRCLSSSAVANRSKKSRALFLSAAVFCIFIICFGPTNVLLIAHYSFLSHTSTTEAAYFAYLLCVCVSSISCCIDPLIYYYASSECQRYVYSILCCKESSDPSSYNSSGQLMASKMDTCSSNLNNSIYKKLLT
# assay-overview: Platelet aggregation assay for thrombin receptor antagonist activity (washed human platelets stimulated with α-thrombin)
# Type: cell-based
*1 amine or outer side, *2 acyl side, *3 side chain or, on linkers, in order; H or OH if unused. Where a SMILES comes first, the peptide text is derived from it. [ ]: non-standard residue; d: D form. The star is where a group is joined. Isoquinolin(3-yl)carbonyl = O=C(c1cc2ccccc2cn1)*; X12 = CCCCCN([C@H](Cc1ccccc1)C(=O)[*:2])[*:1]; Cha = N[C@@H](CC1CCCCC1)C(=O)O
Bear in mind: pIC50 is minus log10 of a mol/L concentration; give just that figure.

molecule: N=C(N)NCCC[C@H](NC(=O)[C@H](CC1CCCCC1)NC(=O)[C@H](CC1CCCCC1)NC(=O)c1cc2ccccc2cn1)C(=O)N[C@@H](CCCCN)C(N)=O [Compound 32] ({Isoquinolin(3-yl)carbonyl}-[Cha][Cha]RK-NH2)
pIC50: 4.82

Query molecule follows.
Qu. What does the data say about its pIC50? Entry: CCCCCN[C@H](Cc1ccccc1)C(=O)N[C@@H](CC1CCCCC1)C(=O)N[C@@H](CC1CCCCC1)C(=O)N[C@@H](CCCNC(=N)N)C(=O)N[C@@H](CCCCN)C(N)=O [Compound 22] (H-[X12][Cha][Cha]RK-NH2)
Ans. 4.60

Source: patent US5866681A
